molecular target: Thymidylate synthase (Mus musculus); assay: Inhibitory activity against thymidylate synthase isolated from L1210 leukemia cells; details: read-out: I50
Sequence (P07607 whole entry): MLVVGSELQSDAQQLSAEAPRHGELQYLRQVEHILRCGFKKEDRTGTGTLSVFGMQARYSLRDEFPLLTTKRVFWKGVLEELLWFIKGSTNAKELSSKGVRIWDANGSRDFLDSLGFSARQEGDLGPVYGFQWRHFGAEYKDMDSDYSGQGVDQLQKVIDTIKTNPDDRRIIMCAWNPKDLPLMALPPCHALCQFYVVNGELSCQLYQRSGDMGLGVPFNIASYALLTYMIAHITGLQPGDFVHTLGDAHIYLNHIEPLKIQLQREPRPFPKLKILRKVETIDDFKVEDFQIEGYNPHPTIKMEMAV
pIC50: −log10 of the molar value.
Property Label: pIC50

1) Nc1nc(O)c2cc(COc3ccc(C(=O)NC(CCC(=O)O)C(=O)O)cc3)ccc2n1 (stereo not drawn): 4.92
2) CN(Cc1ccc2nc(N)nc(N)c2c1)c1ccc(C(=O)NC(CCC(=O)O)C(=O)O)cc1 (stereo not drawn): 6.22
3) C#CCN(Cc1ccc(C(=O)NC(CCC(=O)O)C(=O)O)cc1)c1ccc2nc(N)nc(N)c2c1 (stereo not drawn): 5.36
4) C#CCN(Cc1ccc(C(=O)NC(CCC(=O)O)C(=O)O)cc1)c1ccc2nc(N)nc(O)c2c1 (stereo not drawn): 5.07
5) C=CCN(Cc1ccc(C(=O)NC(CCC(=O)O)C(=O)O)cc1)c1ccc2nc(N)nc(N)c2c1 (stereo not drawn): 5.49
6) Nc1nc(N)c2c(Cl)c(CNc3ccc(C(=O)NC(CCC(=O)O)C(=O)O)cc3)ccc2n1 (stereo not drawn): 6.72

P: Nc1nc(O)c2c(Cl)c(NCc3ccc(C(=O)NC(CCC(=O)O)C(=O)O)cc3)ccc2n1 (stereo not drawn)
Q: CN(Cc1ccc(C(=O)NC(CCC(=O)O)C(=O)O)cc1)c1ccc2nc(N)nc(N)c2c1 (stereo not drawn)
Pick one, P or Q : lowest reported pIC50. Return value: the label identifying the chosen record. P
(P: 5.40, Q: 7.48)

A: Nc1nc(O)c2cc(N(C=O)Cc3ccc(C(=O)NC(CCC(=O)O)C(=O)O)cc3)ccc2n1 (stereo not drawn)
B: CN(Cc1ccc2nc(N)nc(O)c2c1)c1ccc(C(=O)NC(CCC(=O)O)C(=O)O)cc1 (stereo not drawn)
Pick one, A or B : lowest reported pIC50. Return value: the label identifying the chosen record. A
(A: 4.96, B: 6.89)

These measurements were taken from ChEMBL document CHEMBL1124218.
